- TESTED SYSTEM: GLP-1R (Homo sapiens, UniProt P43220)
- Sequence (P43220 24-463): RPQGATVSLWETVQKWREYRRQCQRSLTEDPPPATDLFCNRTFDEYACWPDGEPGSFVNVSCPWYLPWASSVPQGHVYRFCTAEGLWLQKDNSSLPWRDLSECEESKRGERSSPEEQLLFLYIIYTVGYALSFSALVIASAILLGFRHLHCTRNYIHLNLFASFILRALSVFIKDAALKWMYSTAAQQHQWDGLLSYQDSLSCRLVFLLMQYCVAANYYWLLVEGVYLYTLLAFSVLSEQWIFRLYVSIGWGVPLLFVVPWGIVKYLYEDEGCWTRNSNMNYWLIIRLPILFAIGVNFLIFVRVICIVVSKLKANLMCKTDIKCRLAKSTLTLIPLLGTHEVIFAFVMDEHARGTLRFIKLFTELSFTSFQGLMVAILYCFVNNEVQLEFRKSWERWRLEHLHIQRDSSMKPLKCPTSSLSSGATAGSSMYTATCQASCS
- PROTOCOL NOTES: EndoC cAMP accumulation assay (HTRF, EndoC-βH1 cells)
- MEASUREMENT SETUP: EndoC-βH1 human pancreatic β cell line
OBSERVED PROPERTY: EC50 (nM)

molecule="COc1cc(C(=O)O)cc2c1nc(CN1CCN(c3cccc(OCc4ccc(Cl)cc4F)n3)[C@H]3CC[C@@H]31)n2C[C@@H]1CCO1 (single isomer, unassigned) [Example 5a]" unit_descriptor=nM numeric_result=4
molecule="Cc1nccn1CCn1c(CN2CCN(c3cccc(OCc4ccc(Cl)cc4F)n3)[C@@H]3COC[C@@H]32)nc2c(F)cc(C(=O)O)cc21 (single isomer, unassigned)" unit_descriptor=nM numeric_result=110
molecule="N#Cc1ccc(COc2cccc(N3CCN(Cc4nc5c(F)cc(C(=O)O)cc5n4C[C@@H]4CCO4)[C@H]4CC[C@@H]43)n2)c(F)c1 (single isomer, unassigned) [Example 3b]" unit_descriptor=nM numeric_result=8.7
molecule="O=C(O)c1cc(F)c2nc(CN3CCN(c4cccc(OCc5ccc(Cl)cc5F)n4)[C@@H]4COC[C@@H]43)n(C[C@H]3CCOC3)c2c1 (single isomer, unassigned) [Example 18a]" unit_descriptor=nM numeric_result=89
molecule="O=C(O)c1cc(F)c2nc(CN3CCN(c4cccc(OCc5ccc(Cl)cc5F)n4)[C@@H]4COC[C@@H]43)n(C[C@@H]3CCO3)c2c1 (single isomer, unassigned) [Example 19b]" unit_descriptor=nM numeric_result=290
molecule="N#Cc1ccc(COc2cccc(N3CCN(Cc4nc5c(Cl)cc(C(=O)O)cc5n4C[C@@H]4CCO4)[C@H]4CC[C@H]43)n2)c(F)c1 (single isomer, unassigned) [Example 6c]" unit_descriptor=nM numeric_result=5.6

P. N#Cc1ccc(COc2cccc(N3CCN(Cc4nc5ccc(C(=O)O)c(Cl)c5n4C[C@@H]4CCO4)[C@H]4CC[C@H]43)n2)c(F)c1 (single isomer, unassigned) [Example 8a]
Q. N#Cc1ccc(COc2cccc(N3CCN(Cc4nc5c(F)cc(C(=O)O)cc5n4C[C@@H]4CCO4)[C@H]4CC[C@@H]43)n2)c(F)c1 (single isomer, unassigned) [Example 3a]
Task for the reader: decide whether P or Q has the larger EC50. Choose, then provide that item's label. P

* * *

- TESTED SYSTEM: human GLP-1R receptor (Homo sapiens, UniProt P43220, L260F)
- Sequence (P43220 24-463 L260F): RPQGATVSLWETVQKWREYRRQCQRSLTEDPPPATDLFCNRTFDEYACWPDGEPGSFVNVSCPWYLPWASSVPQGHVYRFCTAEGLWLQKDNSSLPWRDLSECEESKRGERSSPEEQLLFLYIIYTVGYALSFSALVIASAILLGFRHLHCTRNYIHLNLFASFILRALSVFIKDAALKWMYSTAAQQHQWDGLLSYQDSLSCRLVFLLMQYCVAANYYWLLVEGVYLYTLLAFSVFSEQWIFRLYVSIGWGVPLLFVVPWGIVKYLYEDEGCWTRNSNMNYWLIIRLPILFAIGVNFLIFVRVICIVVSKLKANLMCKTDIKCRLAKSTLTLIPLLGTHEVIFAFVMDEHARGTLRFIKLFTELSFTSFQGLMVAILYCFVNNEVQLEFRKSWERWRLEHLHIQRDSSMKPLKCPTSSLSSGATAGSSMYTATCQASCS
- PROTOCOL NOTES: CHOK1 GLP-1R cAMP assay (HTRF)
- MEASUREMENT SETUP: CHO-K1 cells stably expressing human GLP-1R
- Protocol: A cell line stably expressing the human GLP-1R receptor (NM_002062.5, including the naturally-occurring variant Leu260Phe) in a CHO-K1 (ATCC® CCL-61™) was used for assay. GLP-1 receptor mediated agonist activity was determined in a cell-based assay measuring cyclic adenosine monophosphate (cAMP) levels in cells using Homogeneous Time-Resolved Fluorescence (HTRF) cAMP detection kit (CisBio catalog #62AM4PEC, cAMP Gs Dynamic range kit). […]
OBSERVED PROPERTY: EC50 (µM)

Worked set:
compound="COc1cc(C(=O)O)cc2c1nc(CN1CCN(c3cccc(OCc4ccc(Cl)cc4F)n3)[C@H]3CC[C@@H]31)n2C[C@@H]1CCO1 (single isomer, unassigned) [Example 5b]" tested_system="human GLP-1R receptor (Homo sapiens, UniProt P43220, L260F)" observed_property=EC50 numeric_result=0.0005
compound="O=C(O)c1cc(F)c2nc(CN3CCN(c4cccc(OCc5ccc(Cl)cc5F)n4)[C@@H]4COC[C@@H]43)n(C[C@@H]3CCO3)c2c1 (single isomer, unassigned) [Example 19a]" tested_system="human GLP-1R receptor (Homo sapiens, UniProt P43220, L260F)" observed_property=EC50 numeric_result=0.0015
compound="Cc1ccnc(Cn2c(CN3CCN(c4cccc(OCc5ccc(C#N)cc5F)n4)[C@@H]4CC[C@@H]43)nc3ccc(C(=O)O)cc32)c1 (racemic)" tested_system="human GLP-1R receptor (Homo sapiens, UniProt P43220, L260F)" observed_property=EC50 numeric_result=0.4
compound="N#Cc1ccc(COc2cccc(N3CCN(Cc4nc5ccc(C(=O)O)c(Cl)c5n4C[C@@H]4CCO4)[C@H]4CC[C@H]43)n2)c(F)c1 (single isomer, unassigned) [Example 8a]" tested_system="human GLP-1R receptor (Homo sapiens, UniProt P43220, L260F)" observed_property=EC50 numeric_result=0.0061
compound="CCn1cncc1Cn1c(CN2CCN(c3cccc(OCc4ccc(Cl)cc4F)n3)[C@H]3CC[C@@H]32)nc2c(OC)cc(C(=O)O)cc21 (single isomer, unassigned) [Example 12a]" tested_system="human GLP-1R receptor (Homo sapiens, UniProt P43220, L260F)" observed_property=EC50 numeric_result=0.0022
compound="COc1cc(C(=O)O)cc2c1nc(CN1CCN(c3cccc(OCc4ccc(C#N)cc4F)n3)[C@H]3CC[C@@H]31)n2C[C@@H]1CCO1 (single isomer, unassigned) [Example 4a]" tested_system="human GLP-1R receptor (Homo sapiens, UniProt P43220, L260F)" observed_property=EC50 numeric_result=0.004

P. N#Cc1ccc(COc2cccc(N3CCN(Cc4nc5c(Cl)cc(C(=O)O)cc5n4C[C@@H]4CCO4)[C@H]4CC[C@H]43)n2)c(F)c1 (single isomer, unassigned) [Example 6b]
Q. O=C(O)c1cc(F)c2nc(CN3CCN(c4cccc(OCc5ccc(Cl)cc5F)n4)[C@@H]4COC[C@@H]43)n(C[C@H]3CCOC3)c2c1 (single isomer, unassigned) [Example 18b]
// max by EC50 over [ P , Q ] Field: selected label. Fill in the label of the entry you choose. P

1. N#Cc1ccc(COc2cccc(N3CCN(Cc4nc5cc(Cl)c(C(=O)O)cc5n4C[C@@H]4CCO4)[C@H]4CC[C@H]43)n2)c(F)c1 (single isomer, unassigned) [Example 7b]
2. N#Cc1ccc(COc2cccc(N3CCN(Cc4nc5cc(Cl)c(C(=O)O)cc5n4C[C@@H]4CCO4)[C@H]4CC[C@H]43)n2)c(F)c1 (single isomer, unassigned) [Example 7c]
3. O=C(O)c1cc(Cl)c2nc(CN3CCN(c4cccc(OCc5ccc(Cl)cc5F)n4)[C@@H]4COC[C@@H]43)n(C[C@@H]3CCO3)c2c1 (single isomer, unassigned) [Example 22a]
4. N#Cc1ccc(COc2cccc(N3CCN(Cc4nc5c(Cl)cc(C(=O)O)cc5n4C[C@@H]4CCO4)[C@H]4CC[C@H]43)n2)c(F)c1 (single isomer, unassigned) [Example 6c]
Falling order of EC50, please. Put the labels in the requested order and write them down. 2, 1, 4, 3
(2: 0.25 µM, 1: 0.09 µM, 4: 0.0081 µM, 3: 0.001 µM)

1. Cc1cc(Cn2c(CN3CCN(c4cccc(OCc5ccc(C#N)cc5F)n4)[C@@H]4CC[C@@H]43)nc3ccc(C(=O)O)cc32)no1 (racemic)
2. Cc1nccn1CCn1c(CN2CCN(c3cccc(OCc4ccc(Cl)cc4F)n3)[C@@H]3COC[C@@H]32)nc2c(Cl)cc(C(=O)O)cc21 (single isomer, unassigned)
Of the pair 1 and 2 , name the member with the lesser recorded EC50. Please identify the chosen entry by its label. 1

1. Cc1nccn1CCn1c(CN2CCN(c3cccc(OCc4ccc(Cl)cc4F)n3)[C@@H]3COC[C@@H]32)nc2ccc(C(=O)O)cc21 (single isomer, unassigned) [Example 25b]
2. N#Cc1ccc(COc2cccc(N3CCN(Cc4nc5ccc(C(=O)O)c(Cl)c5n4C[C@@H]4CCO4)[C@H]4CC[C@H]43)n2)c(F)c1 (single isomer, unassigned) [Example 8b]
3. N#Cc1ccc(COc2cccc(N3CCN(Cc4nc5c(F)cc(C(=O)O)cc5n4C[C@@H]4CCO4)[C@H]4CC[C@@H]43)n2)c(F)c1 (single isomer, unassigned) [Example 3b]
4. N#Cc1ccc(COc2cccc(N3CCN(Cc4nc5cc(Cl)c(C(=O)O)cc5n4C[C@@H]4CCO4)[C@H]4CC[C@H]43)n2)c(F)c1 (single isomer, unassigned) [Example 7a]
5. O=C(O)c1cc(Cl)c2nc(CN3CCN(c4cccc(OCc5ccc(Cl)cc5F)n4)[C@@H]4COC[C@@H]43)n(C[C@@H]3CCO3)c2c1 (single isomer, unassigned) [Example 22b]
Order the records, beginning with the lowest EC50 and ending with the highest. # the answer lists labels in the order requested 3, 4, 2, 5, 1
